Test system: BDL-induced cholestasis hepatic fibrosis in rats
test-description: Bile duct ligation (BDL)-induced hepatic fibrosis in rats (biliary cirrhosis rat model)
Format: in vivo, SD rats
condition-details: 50 μg/kg subcutaneous every two days, 14 days
Numbered stars: 1 amine (or outer) side, 2 acyl side, 3 side chain; on linkers, the order of the positions; unused ones are H or OH. Square brackets hold non-standard residues; d marks the D form. Primed or numbered codes have the meaning given here. Side chains are listed from the residue outwards. Ends that are not written are not given here. * marks the point of attachment. C18 diacid = O=C(O)CCCCCCCCCCCCCCCCC(=O)*; γGlu = O=C(O)[C@H](CCC(=O)[*:2])N[*:1]; PEG2′ = not defined here; Aib = CC(C)(N)C(=O)O
endpoint-label: BDL-induced hepatic fibrosis and inflammation (HE, Sirius Red, IHC sections)

>  <substance>
His-(D-Ser)-Gln-Gly-Thr-Phe-Thr-Ser-Asp-Tyr-Ser-Lys-Tyr-Leu-Asp-Lys(PEG2-PEG2-γGlu-CO(CH2)16CO2H)-Arg-Arg-Ala-Gln-Asp-Phe-Val-Gln-Trp-Leu-Leu-Asn-Thr-Gly-Gly-Pro-Ser-Ser-Gly-Ala-Pro-Pro-Pro-Ser-NH2 (H[dS]QGTFTSDYSKYLDK([PEG2′-PEG2′-γGlu-C18 diacid])RRAQDFVQWLLNTGGPSSGAPPPS-NH2) [Compound 39]

>  <observed-measurement>
significantly reduce

$$$$
>  <substance>
His-(D-Ser)-Gln-Gly-Thr-Phe-Thr-Ser-Asp-Tyr-Ser-Lys-Tyr-Leu-Asp-Aib-Lys(PEG2-PEG2-γGlu-CO(CH2)16CO2H)-Arg-Ala-Gln-Asp-Phe-Val-Gln-Trp-Leu-Met-Asn-Thr-Gly-Gly-Pro-Ser-Ser-Gly-Ala-Pro-Pro-Pro-Ser-NH2 (H[dS]QGTFTSDYSKYLD[Aib]K([PEG2′-PEG2′-γGlu-C18 diacid])RAQDFVQWLMNTGGPSSGAPPPS-NH2) [Compound 7]

>  <observed-measurement>
significantly reduce

$$$$
>  <substance>
His-(D-Ser)-Gln-Gly-Thr-Phe-Thr-Ser-Asp-Tyr-Ser-Lys-Tyr-Leu-Asp-Aib-Lys(PEG2-PEG2-CO(CH2)16CO2H)-Arg-Ala-Gln-Asp-Phe-Val-Gln-Trp-Leu-Met-Asn-Thr-Gly-Gly-Pro-Ser-Ser-Gly-Ala-Pro-Pro-Pro-Ser-NH2 (H[dS]QGTFTSDYSKYLD[Aib]K([PEG2′-PEG2′-C18 diacid])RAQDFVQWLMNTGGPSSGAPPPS-NH2) [Compound 10]

>  <observed-measurement>
significantly reduce

$$$$
